- TEST: Cytotoxicity against human MRC5 cells assessed as reduction in cell viability after 24 hrs by NRU assay
- Type: cell-based
ENDPOINT NAME: CC50 at 24 h (µM)
Just the number please, in µM, no unit attached.

Per the record, COc1ccc(Oc2cccc(-c3c[nH]c(=O)c(C#N)c3[S+](C)[O-])c2)cc1 (stereo unspecified) has CC50 at 24 h of 30

CC50 at 24 h reported for this compound C[S+]([O-])c1c(-c2ccc(OCc3ccccc3)cc2)c[nH]c(=O)c1C#N (stereo unspecified) : 25

Consider C[S+]([O-])c1c(-c2cccc(Oc3ccc(Cl)cc3)c2)c[nH]c(=O)c1C#N (stereo unspecified) . Its measured CC50 at 24 h is 24

# CC50 at 24 h of C[S+]([O-])c1c(-c2ccc(Oc3ccc(Cl)cc3)cc2)c[nH]c(=O)c1C#N (stereo unspecified) = 25

Reported CC50 at 24 h of C[S+]([O-])c1c(-c2cccc(OCc3ccccc3)c2)c[nH]c(=O)c1C#N (stereo unspecified) : 25

Recorded result, C[S+]([O-])c1c(-c2ccc(Cl)c(Cl)c2)c[nH]c(=O)c1C(N)=O (stereo unspecified) , CC50 at 24 h: 16

CC50 at 24 h in this record for C[S+]([O-])c1c(-c2cccc(OCc3ccccc3Cl)c2)c[nH]c(=O)c1C#N (stereo unspecified) : 25

Quick note, CC50 at 24 h for C[S+]([O-])c1c(-c2ccccc2Oc2ccccc2)c[nH]c(=O)c1C#N (stereo unspecified) landed at 30

Given item C[S+]([O-])c1c(-c2cccc(Oc3ccccc3)c2)c[nH]c(=O)c1C#N (stereo unspecified) , the value recorded as its CC50 at 24 h is 32

Looking up C[S+]([O-])c1c(-c2cccc(OCc3ccc(Cl)cc3)c2)c[nH]c(=O)c1C#N (stereo unspecified) , I found its CC50 at 24 h recorded as 31

Input `CSc1c(-c2ccccc2)c[nH]c(=O)c1C#N` . Output CC50 at 24 h: 64

// recorded CC50 at 24 h for C[S+]([O-])c1c(-c2cccc(OCc3ccccc3[N+](=O)[O-])c2)c[nH]c(=O)c1C#N (stereo unspecified) : 64
